# assay-procedure: log P determination by HPLC on reversed-phase columns (C 18), acidic range pH 2.7
# Type: physicochemical
# study-conditions: HPLC, pH 2.7; second-listed (minor) isomer of the isomer mixture
In this section, each of the compounds is paired with its reported logP.
// keep it numeric: no unit symbol after the value

Known logP results, listed for orientation:
# compound, logP
records = [
    ("Cc1ccccc1CON=Cc1csc(C2CCN(C(=O)Cn3nc(C(F)(F)F)cc3C)CC2)n1 (mixture of isomers)", 4.12),
    ("Cc1cc(C(F)(F)F)nn1CC(=O)N1CCC(c2nc(C=NOC3CCCCC3)cs2)CC1 (mixture of isomers)", 4.48),
    ("CC(=NOCc1c(F)cccc1F)c1csc(C2CCN(C(=O)Cn3nc(C(F)F)cc3C(F)F)CC2)n1 (mixture of isomers)", 4.19),
    ("Cc1cc(C(F)(F)F)nn1CC(=O)N1CCC(c2nc(C=NOCc3ccccc3)cs2)CC1 (mixture of isomers)", 3.80),
    ("O=C(Cc1cc(Cl)ccc1Cl)N1CCC(c2nc(C=NOCc3c(F)cccc3F)cs2)CC1 (mixture of isomers)", 4.60),
]

Using the record for Cc1cc(C(F)(F)F)nn1CC(=O)N1CCC(c2nc(C=NOC(C)c3ccccc3)cs2)CC1 (mixture of isomers) , report its logP.
4.07

Requested field: logP. Item: CC(=NOC1CCCCC1)c1csc(C2CCN(C(=O)Cn3nc(C(F)F)cc3C(F)F)CC2)n1 (mixture of isomers)
4.88
